molecular target: EGFR Del19/T790M/C797S (Homo sapiens, UniProt P00533, C797S/DEL746-750/T790M); test: Biochemical EGFR kinase inhibition assay (Lance Ultra TR-FRET), triple mutant del19/T790M/C797S; conditions: IC50 Del19/T790M/C797S (nM), 100 μM ATP
Sequence (P00533 with tags, fused parts or gaps DEL746-750/T790M/C797S): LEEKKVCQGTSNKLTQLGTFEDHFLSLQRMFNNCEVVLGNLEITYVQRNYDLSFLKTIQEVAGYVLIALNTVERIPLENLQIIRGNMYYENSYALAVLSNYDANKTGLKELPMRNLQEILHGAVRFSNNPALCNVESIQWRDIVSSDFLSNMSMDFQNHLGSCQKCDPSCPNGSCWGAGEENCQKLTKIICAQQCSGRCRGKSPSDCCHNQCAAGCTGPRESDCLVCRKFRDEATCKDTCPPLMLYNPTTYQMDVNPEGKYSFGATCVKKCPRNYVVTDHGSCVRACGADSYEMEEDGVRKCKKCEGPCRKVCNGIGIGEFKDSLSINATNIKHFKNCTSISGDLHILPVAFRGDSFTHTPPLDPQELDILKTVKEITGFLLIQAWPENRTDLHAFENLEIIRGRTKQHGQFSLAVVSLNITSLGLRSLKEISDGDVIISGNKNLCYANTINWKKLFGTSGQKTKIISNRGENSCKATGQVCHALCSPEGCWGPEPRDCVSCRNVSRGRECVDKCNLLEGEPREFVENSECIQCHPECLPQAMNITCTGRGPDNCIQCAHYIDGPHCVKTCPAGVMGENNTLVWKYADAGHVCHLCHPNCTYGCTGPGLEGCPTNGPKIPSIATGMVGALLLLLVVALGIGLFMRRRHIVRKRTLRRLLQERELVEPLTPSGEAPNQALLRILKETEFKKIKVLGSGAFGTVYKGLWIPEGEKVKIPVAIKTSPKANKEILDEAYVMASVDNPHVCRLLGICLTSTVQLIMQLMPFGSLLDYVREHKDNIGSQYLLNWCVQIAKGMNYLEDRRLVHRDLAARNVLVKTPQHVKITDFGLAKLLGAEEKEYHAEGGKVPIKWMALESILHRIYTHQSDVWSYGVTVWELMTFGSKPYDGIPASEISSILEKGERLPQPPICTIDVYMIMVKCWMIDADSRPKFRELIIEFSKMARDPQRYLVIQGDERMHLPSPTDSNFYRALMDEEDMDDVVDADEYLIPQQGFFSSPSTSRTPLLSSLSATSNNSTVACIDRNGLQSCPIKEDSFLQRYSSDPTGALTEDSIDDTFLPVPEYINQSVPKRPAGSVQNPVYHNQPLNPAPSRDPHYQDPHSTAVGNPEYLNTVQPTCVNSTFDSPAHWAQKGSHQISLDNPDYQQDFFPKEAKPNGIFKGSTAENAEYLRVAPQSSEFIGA
assay.endpoint: IC50 (nM)

# example entries with known answers
Value lookup for IC50; key = CN1CCC2(CC1)CCN(c1cc(Nc3ccnc(-c4cnn(S(=O)(=O)C5CC5)c4)n3)ncc1C#Cc1cnn(CC(F)F)c1)CC2 [Example 322] 0.5

Consider the compound CN(C)CCn1cc(C#Cc2cnc(Nc3ccnc(-c4cnn(S(=O)(=O)C5CC5)c4)n3)cc2N2CCCC(CO)C2)cn1 (stereo not drawn) [Example 118] and give its measured IC50. 0.6

Give the measured IC50 of O=C1CCN(c2cc(Nc3ccnc(-c4cnn(S(=O)(=O)C5CC5)c4)n3)ncc2C#Cc2cnn(C3CCOCC3)c2)CC1 [Example 93] . 2.2

a. Cn1cc(C#Cc2cnc(Nc3ccnc(-c4cnn(S(=O)(=O)C5CC5)c4)n3)cc2N2CCC(C(F)(F)F)CC2)cn1 [Example 65]
b. CC1(CO)CCN(c2cc(Nc3ccnc(-c4cnn(S(=O)(=O)C5CC5)c4)n3)ncc2C#Cc2cnn(C3COC3)c2)CC1 [Example 245]
c. CN1CCC2(CC1)CCN(c1cc(Nc3ccnc(-c4cnn(S(=O)(=O)C5CC5)c4)n3)ncc1C#Cc1cnn(C(F)F)c1)CC2 [Example 321]
// ranking: key=IC50, reverse=True Please respond with the labels ordered as the question requires. a, b, c

---

target: EGFR Del19/C797S (Homo sapiens, UniProt P00533, C797S/DEL746-750); test: Biochemical EGFR kinase inhibition assay (Lance Ultra TR-FRET), double mutant del19/C797S; conditions: ATP at Km; read-out: IC50 Del19/C797S (nM), Km ATP
Sequence (P00533 with tags, fused parts or gaps DEL746-750/C797S): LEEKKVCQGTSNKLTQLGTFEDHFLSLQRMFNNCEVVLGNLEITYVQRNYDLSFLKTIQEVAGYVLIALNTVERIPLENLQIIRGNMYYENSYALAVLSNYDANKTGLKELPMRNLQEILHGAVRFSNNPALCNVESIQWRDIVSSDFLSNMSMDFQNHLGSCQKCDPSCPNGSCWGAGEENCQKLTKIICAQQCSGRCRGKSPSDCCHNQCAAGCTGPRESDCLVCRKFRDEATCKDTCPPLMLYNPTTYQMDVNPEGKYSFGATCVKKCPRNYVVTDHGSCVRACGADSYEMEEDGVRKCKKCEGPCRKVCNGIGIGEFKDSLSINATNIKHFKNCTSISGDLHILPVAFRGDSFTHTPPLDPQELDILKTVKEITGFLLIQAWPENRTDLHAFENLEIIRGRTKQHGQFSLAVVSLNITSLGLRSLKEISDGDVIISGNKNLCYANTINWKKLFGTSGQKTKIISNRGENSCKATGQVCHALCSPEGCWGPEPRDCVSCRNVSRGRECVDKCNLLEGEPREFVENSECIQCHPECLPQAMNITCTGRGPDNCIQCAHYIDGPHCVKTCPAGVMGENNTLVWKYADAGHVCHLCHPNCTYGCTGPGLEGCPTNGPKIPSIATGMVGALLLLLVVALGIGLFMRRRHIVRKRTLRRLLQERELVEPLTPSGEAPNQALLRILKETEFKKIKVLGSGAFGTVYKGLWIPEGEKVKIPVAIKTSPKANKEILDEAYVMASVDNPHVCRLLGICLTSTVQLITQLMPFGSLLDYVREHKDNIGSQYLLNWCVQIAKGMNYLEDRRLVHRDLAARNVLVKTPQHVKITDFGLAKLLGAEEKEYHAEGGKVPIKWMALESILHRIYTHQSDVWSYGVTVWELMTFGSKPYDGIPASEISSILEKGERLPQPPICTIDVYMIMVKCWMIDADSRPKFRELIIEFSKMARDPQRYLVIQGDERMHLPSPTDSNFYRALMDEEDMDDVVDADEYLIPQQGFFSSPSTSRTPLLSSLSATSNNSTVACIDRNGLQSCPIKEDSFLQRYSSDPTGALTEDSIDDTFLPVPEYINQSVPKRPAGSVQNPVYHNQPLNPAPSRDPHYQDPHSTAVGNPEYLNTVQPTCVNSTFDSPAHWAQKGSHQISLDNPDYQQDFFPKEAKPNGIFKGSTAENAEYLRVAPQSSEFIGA
assay.endpoint: IC50 (nM)

Below are worked cases with known answers.
Report IC50 for Cc1nn(S(=O)(=O)N(C)C)cc1-c1nccc(Nc2cc(N3CCC(C)(CO)CC3)c(C#Cc3cnn(C(F)(F)F)c3)cn2)n1 please. 51.2

Return reported IC50; argument: CN(C)C[C@H]1CC[C@@H](Nc2cc(Nc3ccnc(-c4cnn(S(=O)(=O)C5CC5)c4)n3)ncc2C#Cc2cnn(CC(F)F)c2)CC1 1.6

Given the compound CC(C)Nc1cc(Nc2ccnc(-c3cnn(S(=O)(=O)C4CC4)c3)n2)ncc1C#CCCCNC(=O)N1CCOCC1 , what is its reported IC50? 29.1

a. CN(C)CC1(C)CCN(c2cc(Nc3ccnc(-c4cnn(S(=O)(=O)C5CC5)c4)n3)ncc2C#Cc2cnn(C3CC3)c2)CC1
b. CC1(CO)CCN(c2cc(Nc3ccnc(-c4cnn(S(=O)(=O)C5CC5)c4)n3)ncc2C#Cc2ccc(CN3CCOCC3)nc2)CC1
c. CN(C)CC1(F)CCN(c2cc(Nc3ccnc(-c4cnn(S(=O)(=O)C5CC5)c4)n3)ncc2C#Cc2cnn(C3CC3)c2)CC1
Put the items in sequence by IC50, from largest down. Sort the labels as requested; that list is your answer. c, b, a

a. CN(C)C[C@H]1CC[C@@H](Nc2cc(Nc3ccnc(-c4cnn(S(=O)(=O)C5CC5)c4)n3)ncc2C#Cc2cnn(C(F)(F)F)c2)CC1
b. CC1(CO)CCN(c2cc(Nc3ccnc(Nc4ccccc4S(C)(=O)=O)n3)ncc2C#Cc2cnn(C(F)F)c2)CC1
c. CN(C)C(=O)c1cccc(C#Cc2cnc(Nc3ccnc(-c4cnn(S(=O)(=O)C5CC5)c4)n3)cc2N2CCC(C)(CO)CC2)n1
Thanks in advance: please rank these 3 entries by IC50, highest to lowest. Rank them, then answer with their labels in that order. b, a, c

P. Nc1cccc(C#Cc2cnc(Nc3ccnc(-c4cnn(S(=O)(=O)C5CC5)c4)n3)cc2N[C@@H]2CCC[C@H](O)C2)c1
Q. O=S(=O)(C1CC1)n1cc(-c2nccc(Nc3cc(N4CCC5(CCCO5)CC4)c(C#Cc4cccnc4)cn3)n2)cn1
R. CN(C)CC1(C)CCN(c2cc(Nc3ccnc(-c4cnn(S(=O)(=O)C5CC5)c4)n3)ncc2C#Cc2cnn(C)c2)CC1
// ranking: key=IC50, reverse=True Reply with the item labels sorted in the order that was asked for. Q, P, R
(Q: 8.3 nM, P: 4.7 nM, R: 0.6 nM)

---

target: EGFR L858R/C797S (Homo sapiens, UniProt P00533, C797S/L858R); experiment: Biochemical EGFR kinase inhibition assay (Lance Ultra TR-FRET), double mutant L858R/C797S; settings: Km ATP; read-out: IC50 L858R/C797S (nM) Km ATP
Sequence (P00533 25-1210 C797S/L858R): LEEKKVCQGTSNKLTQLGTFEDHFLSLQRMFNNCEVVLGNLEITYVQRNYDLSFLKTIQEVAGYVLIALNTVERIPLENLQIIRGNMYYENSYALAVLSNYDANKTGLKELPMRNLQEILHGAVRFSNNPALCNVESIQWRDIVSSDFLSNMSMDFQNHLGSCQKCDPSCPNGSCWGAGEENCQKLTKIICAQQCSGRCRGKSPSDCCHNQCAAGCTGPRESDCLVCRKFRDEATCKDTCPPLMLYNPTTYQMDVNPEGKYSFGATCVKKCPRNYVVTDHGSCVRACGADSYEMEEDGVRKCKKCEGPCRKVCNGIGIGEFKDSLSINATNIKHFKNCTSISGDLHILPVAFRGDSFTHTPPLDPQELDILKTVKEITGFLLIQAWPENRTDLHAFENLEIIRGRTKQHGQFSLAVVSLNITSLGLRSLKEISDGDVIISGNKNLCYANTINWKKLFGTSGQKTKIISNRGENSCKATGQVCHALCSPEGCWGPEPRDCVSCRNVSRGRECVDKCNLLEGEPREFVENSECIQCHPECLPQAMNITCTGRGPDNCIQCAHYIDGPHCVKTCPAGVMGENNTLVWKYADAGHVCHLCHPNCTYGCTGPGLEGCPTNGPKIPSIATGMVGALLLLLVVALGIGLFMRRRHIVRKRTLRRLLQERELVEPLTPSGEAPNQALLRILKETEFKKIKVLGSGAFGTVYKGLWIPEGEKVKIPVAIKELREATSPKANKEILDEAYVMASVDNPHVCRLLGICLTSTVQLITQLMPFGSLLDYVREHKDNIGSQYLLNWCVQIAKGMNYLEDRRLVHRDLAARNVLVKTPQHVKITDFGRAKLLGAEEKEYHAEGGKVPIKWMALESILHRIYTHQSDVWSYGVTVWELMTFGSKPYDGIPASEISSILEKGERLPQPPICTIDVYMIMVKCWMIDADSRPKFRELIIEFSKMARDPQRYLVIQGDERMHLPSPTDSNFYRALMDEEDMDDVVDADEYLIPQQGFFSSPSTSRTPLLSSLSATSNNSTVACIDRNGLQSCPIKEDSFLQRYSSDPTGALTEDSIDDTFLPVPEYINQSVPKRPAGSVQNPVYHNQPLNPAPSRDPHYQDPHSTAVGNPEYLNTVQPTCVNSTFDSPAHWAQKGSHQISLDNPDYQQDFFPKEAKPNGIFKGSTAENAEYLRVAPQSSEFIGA
assay.endpoint: IC50 (nM)

A. O=S(=O)(C1CC1)n1cc(-c2nccc(Nc3cc(N4CCC(F)CC4)c(C#Cc4cnn(C5CCOCC5)c4)cn3)n2)cn1 [Example 97]
B. CN(C)CCCn1cc(C#Cc2cnc(Nc3ccnc(-c4cnn(S(=O)(=O)C5CC5)c4)n3)cc2N2CCC(NCCF)CC2)cn1 [Example 145]
C. O=C1CCN(c2cc(Nc3ccnc(-c4cnn(S(=O)(=O)C5CC5)c4)n3)ncc2C#Cc2cnn(C3CCOCC3)c2)CC1 [Example 93]
D. CN(C)Cc1ccc(CNc2cc(Nc3ccnc(-c4cnn(S(=O)(=O)C5CC5)c4)n3)ncc2C#Cc2cnn(CC(F)F)c2)cc1 [Example 52]
E. C[C@]1(O)CC[C@@H](Nc2cc(Nc3ccnc(-c4cnn(S(=O)(=O)C5CC5)c4)n3)ncc2C#Cc2cnn(C(F)(F)F)c2)CC1 [Example 105]
Ranking field: IC50; order: falling. Output the labels ranked as instructed. E, D, C, A, B
(E: 100 nM, D: 65.6 nM, C: 18.3 nM, A: 9.2 nM, B: 0.5 nM)

A. Cn1cc(C#Cc2cnc(Nc3ccnc(-c4cnn(S(=O)(=O)C5CC5)c4)n3)cc2N2CCCC(O)CC2)cn1 (stereo not shown) [Example 77]
B. O=S(=O)(C1CC1)n1cc(-c2nccc(Nc3cc(N[C@H]4CC[C@@H](O)CC4)c(C#Cc4cnn(C5CCOCC5)c4)cn3)n2)cn1 [Example 94]
C. CN(C)CCn1cc(C#Cc2cnc(Nc3ccnc(-c4cnn(S(=O)(=O)C5CC5)c4)n3)cc2N2CCC(NCCF)CC2)cn1 [Example 144]
D. O=S(=O)(C1CC1)n1cc(-c2nccc(Nc3cc(N4CCC(F)(CO)CC4)c(C#Cc4cnn(C5CCOCC5)c4)cn3)n2)cn1 [Example 96]
E. CC(=O)N1CCC(n2cc(C#Cc3cnc(Nc4ccnc(-c5cnn(S(=O)(=O)C6CC6)c5)n4)cc3N3CCCC(CO)C3)cn2)CC1 (stereo not shown) [Example 115]
List from greatest to least IC50. Returns: the labels listed in the requested order. A, B, E, D, C
(A: 14.1 nM, B: 4.3 nM, E: 2.9 nM, D: 1.5 nM, C: 0.8 nM)

---

molecular target: EGFR L858R/C797S (Homo sapiens, UniProt P00533, C797S/L858R); test: Biochemical EGFR kinase inhibition assay (Lance Ultra TR-FRET), double mutant L858R/C797S; details: IC50 L858R/C797S (nM), 100 μM ATP
assay.endpoint: IC50 (nM)

# example entries with known answers
Query IC50 on EGFR L858R/C797S (Homo sapiens, UniProt P00533, C797S/L858R) for C[C@]1(O)CCCN(c2cc(Nc3ccnc(-c4cnn(S(=O)(=O)C5CC5)c4)n3)ncc2C#Cc2cnn(CCF)c2)C1 [Example 447] 59.8

Find IC50 (EGFR L858R/C797S (Homo sapiens, UniProt P00533, C797S/L858R)) for the entry Cn1cc(C#Cc2cnc(Nc3ccnc(-c4cnn(S(=O)(=O)C5CC5)c4)n3)cc2N2CCC(NCCC(F)(F)F)CC2)cn1 [Example 127] 45.7

Write down the reported IC50 of CC1(CO)CCN(c2cc(Nc3ccnc(-c4cnn(S(=O)(=O)C5CC5)c4)n3)ncc2C#Cc2cnn(C3CCOCC3)c2)CC1 [Example 95] , test system: EGFR L858R/C797S (Homo sapiens, UniProt P00533, C797S/L858R). 4.1

a. Cn1cc(C#Cc2cnc(Nc3ccnc(-c4cnn(S(=O)(=O)C5CC5)c4)n3)cc2N[C@H]2CC[C@@H](NCCF)CC2)cn1 [Example 80]
b. O=S(=O)(C1CC1)n1cc(-c2nccc(Nc3cc(N4CCC(NCCO)CC4)c(C#Cc4cnn(C5CCOCC5)c4)cn3)n2)cn1 [Example 137]
c. O=S1(=O)CCC(C#Cc2cnc(Nc3ccnc(-c4cnn(S(=O)(=O)C5CC5)c4)n3)cc2NC2CCC(CO)CC2)C1 (stereo not drawn) [Example 428]
I would appreciate it if you could sort these 3 compounds by IC50, starting from the smallest number. # answer = labels listed in requested order c, b, a

---

target: EGFR Del19/T790M/C797S (Homo sapiens, UniProt P00533, C797S/DEL746-750/T790M); assay: Biochemical EGFR kinase inhibition assay (Lance Ultra TR-FRET), triple mutant del19/T790M/C797S; conditions: Km ATP; read-out: IC50 Del19/T790M/C797S (nM), Km ATP
assay.endpoint: IC50 (nM)

Use these answered entries as a reference point.
Dear colleague, I am looking for the recorded IC50 of the following compound: CN1CCC(C#Cc2cnc(Nc3ccnc(-c4cnn(S(=O)(=O)C5CC5)c4)n3)cc2N2CCC3(CCCO3)CC2)C1 (centres unmarked) 0.2

// returns reported IC50 for input Cn1cc(C#Cc2cnc(Nc3ccnc(-c4cnn(S(=O)(=O)C5CC5)c4)n3)cc2N2CCC(F)(CNCCF)CC2)cn1 1

# get_value(readout='IC50', item= O=S(=O)(C1CC1)n1cc(-c2nccc(Nc3cc(NC4CCC(CO)CC4)c(C#CC4(F)CCOC4)cn3)n2)cn1 (centres unmarked) ) 0.4

Entry CN(C)CCC1CCN(c2cc(Nc3ccnc(-c4cnn(S(=O)(=O)C5CC5)c4)n3)ncc2C#Cc2cnn(C(F)(F)F)c2)CC1 has what IC50? 0.4

Fill in: IC50 of CS(=O)(=O)N1CCC(C#Cc2cnc(Nc3ccnc(-c4cnn(S(=O)(=O)C5CC5)c4)n3)cc2NCC2CCC(O)CC2)C1 (centres unmarked) is ___ 26.7

Entry COC1(O)CCN(c2cc(Nc3ccnc(-c4cnn(S(=O)(=O)C5CC5)c4)n3)ncc2C#Cc2ncc(CN3CCOCC3)cn2)CC1 has what IC50? 0.4

1. O=S(=O)(C1CC1)n1cc(-c2nccc(Nc3cc(N[C@H]4CC[C@@H](CO)CC4)c(C#Cc4cnn(C(F)(F)F)c4)cn3)n2)cn1
2. CC1(O)CCC(CNc2cc(Nc3ccnc(-c4cnn(S(=O)(=O)C5CC5)c4)n3)ncc2C#CC2CCCO2)CC1 (centres unmarked)
3. COC1(O)CCN(c2cc(Nc3ccnc(-c4cnn(S(=O)(=O)C5CC5)c4)n3)ncc2C#CC2CCN(C)C2)CC1 (centres unmarked)
4. CC1OCCC1C#Cc1cnc(Nc2ccnc(-c3cnn(S(=O)(=O)C4CC4)c3)n2)cc1NCC1CCC(O)CC1 (centres unmarked)
5. O=S(=O)(C1CC1)N1CCC(C#Cc2cnc(Nc3ccnc(-c4cnn(S(=O)(=O)C5CC5)c4)n3)cc2N[C@H]2CC[C@@H](O)CC2)CC1
Parameters: sort_field (IC50), sort_dir (desc). Your answer should be the labels, listed in the requested order. 2, 1, 4, 5, 3
(2: 3 nM, 1: 2 nM, 4: 1.2 nM, 5: 0.6 nM, 3: 0.3 nM)
